TARGET ENTITY: KMT9 (Homo sapiens, UniProt Q9Y5N5)
Sequence (Q9Y5N5 1-214): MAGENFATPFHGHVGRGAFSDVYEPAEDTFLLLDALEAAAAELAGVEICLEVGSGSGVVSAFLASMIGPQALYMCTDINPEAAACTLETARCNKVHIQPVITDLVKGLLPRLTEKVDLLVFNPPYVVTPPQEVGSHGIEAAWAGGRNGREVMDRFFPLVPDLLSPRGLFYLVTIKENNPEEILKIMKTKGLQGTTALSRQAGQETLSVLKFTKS
Sequence (Q9UI30 1-120 isoform Q9UI30-2 partner): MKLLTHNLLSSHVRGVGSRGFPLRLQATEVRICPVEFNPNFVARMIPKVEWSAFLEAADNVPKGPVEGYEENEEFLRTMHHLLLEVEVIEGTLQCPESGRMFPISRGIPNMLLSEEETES
ASSAY NOTES: Microscale thermophoresis (MST) KMT9 binding
TEST SETTINGS: microscale thermophoresis, His-tag labelled KMT9 (20 nM); read-out: MST
pKd: −log10 of the molar value.
RESULT TYPE: pKd

The examples below pair each entry with its known result.
[
  {
    "SMILES RECORD": "CNc1ncnc2c1ccn2[C@@H]1C[C@H](/C=C/CCCNCCc2ccccc2)[C@@H](O)[C@H]1O",
    "pKd": "< 6.00"
  },
  {
    "SMILES RECORD": "Nc1ncnc2c1ncn2[C@@H]1O[C@H](CNCCCNCc2ccc(OCc3ccccc3)cc2)[C@@H](O)[C@H]1O",
    "pKd": "6.00 to 7.00"
  },
  {
    "SMILES RECORD": "C=Cc1cn([C@@H]2C[C@H](CNCCCNCCc3cccc(Oc4ccccc4)c3)[C@@H](O)[C@H]2O)c2ncnc(N)c12",
    "pKd": "7.00 to 8.00"
  },
  {
    "SMILES RECORD": "CNc1ncnc2c1ccn2[C@@H]1C[C@H](CCCCCNCCc2ccccc2)[C@@H](O)[C@H]1O",
    "pKd": "6.00 to 7.00"
  }
]

Param readout= pKd; system= KMT9 (Homo sapiens, UniProt Q9Y5N5); entry= `CNc1ncnc2c1ccn2[C@@H]1C[C@H](CSCCNCCc2ccccc2)[C@@H](O)[C@H]1O` ; returns value.
< 6.00

Param readout= pKd; system= KMT9 (Homo sapiens, UniProt Q9Y5N5); entry= `Nc1ncnc2c1c(C1CC1)cn2[C@@H]1C[C@H](CNCCCNCCc2cccc(Oc3ccccc3)c2)[C@@H](O)[C@H]1O` ; returns value.
7.00 to 8.00

Param readout= pKd; system= KMT9 (Homo sapiens, UniProt Q9Y5N5); entry= `Nc1ncnc2c1c(Br)cn2[C@@H]1C[C@H](C(=O)NCCCNCCc2ccccc2)[C@@H](O)[C@H]1O` ; returns value.
7.00 to 8.00

* * *

Each record here notes measured Kd.
TARGET ENTITY: KMT9 (Homo sapiens, UniProt Q9Y5N5)
ASSAY NOTES: Microscale thermophoresis (MST) KMT9 binding
TEST SETTINGS: His-tag labelled KMT9 20 nM; read-out: MST (Kd)

Param readout= Kd; system= KMT9 (Homo sapiens, UniProt Q9Y5N5); entry= `Nc1ncnc2c1ccn2[C@@H]1C[C@H]([C@@H]2CCCN2)[C@@H](O)[C@H]1O` ; returns value.
> 1000 nM

Param readout= Kd; system= KMT9 (Homo sapiens, UniProt Q9Y5N5); entry= `CN(CCCNCCc1ccc(F)cc1)C[C@H]1C[C@@H](n2cc(-c3ccccc3)c3c(N)nc(Cl)nc32)[C@H](O)[C@@H]1O` ; returns value.
≤ 10 nM
